For each record, write down the corresponding IC50.
- assayed-target: recombinant Vps34 (Homo sapiens)
- Sequence (Q8NEB9 whole entry): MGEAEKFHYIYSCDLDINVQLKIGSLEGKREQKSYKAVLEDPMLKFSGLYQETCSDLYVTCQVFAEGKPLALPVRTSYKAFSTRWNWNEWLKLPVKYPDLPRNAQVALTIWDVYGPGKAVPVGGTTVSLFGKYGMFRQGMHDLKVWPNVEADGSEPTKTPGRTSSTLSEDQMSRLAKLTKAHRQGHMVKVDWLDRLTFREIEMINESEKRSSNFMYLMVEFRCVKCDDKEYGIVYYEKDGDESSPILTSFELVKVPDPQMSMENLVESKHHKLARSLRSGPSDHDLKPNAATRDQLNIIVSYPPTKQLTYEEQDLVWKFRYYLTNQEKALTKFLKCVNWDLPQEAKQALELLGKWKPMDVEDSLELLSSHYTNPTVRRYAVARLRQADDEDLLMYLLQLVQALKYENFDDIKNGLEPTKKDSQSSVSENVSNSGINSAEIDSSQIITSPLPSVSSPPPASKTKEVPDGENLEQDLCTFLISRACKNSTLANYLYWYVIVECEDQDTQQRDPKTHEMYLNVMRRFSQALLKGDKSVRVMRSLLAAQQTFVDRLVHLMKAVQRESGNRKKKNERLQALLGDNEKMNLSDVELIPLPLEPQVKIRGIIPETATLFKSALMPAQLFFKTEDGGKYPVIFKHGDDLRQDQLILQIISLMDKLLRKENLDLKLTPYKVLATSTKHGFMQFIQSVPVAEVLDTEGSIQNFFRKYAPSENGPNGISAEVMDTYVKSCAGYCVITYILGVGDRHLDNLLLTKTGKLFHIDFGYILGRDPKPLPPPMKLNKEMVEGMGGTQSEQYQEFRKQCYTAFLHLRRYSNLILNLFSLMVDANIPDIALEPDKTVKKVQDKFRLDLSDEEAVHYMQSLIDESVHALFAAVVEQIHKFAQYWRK
- measurement-protocol: Phosphorylation of phosphatidylinositol (PI) by Vps34 in vitro, ADP detected by TR-FRET (HTRF Transcreener ADP)
- measurement-setup: 10 μM ATP, 55 μg/ml PI, approximately 3 nM Vps34, 1 hour at ambient temperature; absolute IC50, mean of two independent experiments; read-out: IC50 activity range

Please give IC50 for each item listed below.
1. C[C@@H]1COCCN1c1nc2n(c(=O)c1F)CC[C@@H](C(F)(F)F)N2Cc1nc(C(C)(C)C)no1
2. C[C@@H]1COCCN1c1cc(=O)n2c(n1)N(Cc1ccnc(Cl)c1)CC[C@@H]2C(F)(F)F
3. C[C@@H]1COCCN1c1cc(=O)n2c(n1)N(Cc1cocn1)[C@H](C(F)(F)F)CC2
4. Cc1nc(CN2CC[C@H](C(F)(F)F)n3c2nc(N2CCOC[C@H]2C)cc3=O)no1
5. CC(C)c1noc(CN2c3nc(N4CCOC[C@H]4C)c(F)c(=O)n3CC[C@H]2C(F)(F)F)n1
6. C[C@@H]1COCCN1c1cc(=O)n2c(n1)N(CC(=O)N1CCCO1)[C@H](C(F)(F)F)CC2
7. C[C@@H]1COCCN1c1cc(=O)n2c(n1)N(Cc1ccc(Cl)nc1)[C@H](C(F)(F)F)CC2

1. < 10 nM
2. < 10 nM
3. < 10 nM
4. < 10 nM
5. < 10 nM
6. < 10 nM
7. < 10 nM

Please give IC50 for each item listed below.
1. C[C@@H]1COCCN1c1cc(=O)n2c(n1)N(CC(O)c1ccccn1)[C@H](C(F)(F)F)CC2 (single isomer, unassigned) [Example 212]
2. C[C@@H]1COCCN1c1cc(=O)n2c(n1)N(CC(=O)Nc1ccccc1)[C@H](C(F)(F)F)CC2
3. C[C@@H]1COCCN1c1cc(=O)n2c(n1)N(c1ccc(OC(F)F)nc1)[C@H](C(F)(F)F)CC2
4. C[C@@H]1COC[C@@H](C)N1c1cc(=O)n2c(n1)N(c1cccnc1)[C@H](C(F)(F)F)CC2
5. C[C@@H]1COCCN1c1cc(=O)n2c(n1)N(CC(=O)c1ccccn1)[C@H](C(F)(F)F)CC2

1: < 10 nM; 2: 10 to 100 nM; 3: < 10 nM; 4: < 10 nM; 5: < 10 nM

Please give IC50 for each item listed below.
1. C[C@@H]1COCCN1c1nc2n(c(=O)c1F)CC[C@@H](C(F)(F)F)N2CC(=O)N1CC2(COC2)C1
2. C[C@@H]1COCCN1c1cc(=O)n2c(n1)N(c1cccnc1)[C@H](C(F)(F)F)CC2
3. O=c1cc(N2CC3CCC(C2)O3)nc2n1CC[C@@H](C(F)(F)F)N2Cc1ccc(Cl)nc1

1: < 10 nM; 2: < 10 nM; 3: 10 to 100 nM

* * *

For each record, write down the corresponding pIC50.
- assayed-target: recombinant Vps34 (Homo sapiens)
- measurement-protocol: Phosphorylation of phosphatidylinositol (PI) by Vps34 in vitro, ADP detected by TR-FRET (HTRF Transcreener ADP)
- measurement-setup: 10 μM ATP, 55 μg/ml PI, approximately 3 nM Vps34, 1 hour at ambient temperature; absolute IC50, mean of two independent experiments; read-out: IC50 activity range
pIC50: −log10 of the molar value.

Please give pIC50 for each item listed below.
1. C[C@@H]1COCCN1c1cc(=O)n2c(n1)N(Cc1noc(C3CC3)n1)[C@H](C(F)(F)F)CC2 [Example 202]
2. CC(C)C(F)CN1c2nc(N3CCOC[C@H]3C)c(F)c(=O)n2CC[C@H]1C(F)(F)F (single isomer, unassigned) [Example 328]
3. Cc1noc(CN2c3nc(N4CCOC[C@H]4C)c(F)c(=O)n3CC[C@H]2C(F)(F)F)n1 [Example 19]
4. CC(C)c1noc(CN2c3nc(N4CCOC[C@H]4C)cc(=O)n3CC[C@H]2C(F)(F)F)n1 [Example 226]

> 8.00
> 8.00
> 8.00
> 8.00

Please give pIC50 for each item listed below.
1. C[C@@H]1COCCN1c1nc2n(c(=O)c1F)CC[C@@H](C(F)(F)F)N2c1ccc(C2CC2)nc1 [Example 43]
2. C[C@@H]1COCCN1c1nc2n(c(=O)c1F)CC[C@@H](C(F)(F)F)N2CC(=O)c1cccnc1 [Example 50]
3. C[C@@H]1COCCN1c1cc(=O)n2c(n1)N(Cc1cn3ccccc3n1)[C@H](C(F)(F)F)CC2 [Example 64]
4. CO/N=C(\CN1c2nc(N3CCOC[C@H]3C)cc(=O)n2CC[C@H]1C(F)(F)F)C1CC1 (single isomer, unassigned) [Example 307]
5. C[C@@H]1COCCN1c1nc2n(c(=O)c1F)[C@@H](C(F)(F)F)CCN2Cc1nc(C2CC2)no1 [Example 147]
6. COc1cc(N2c3nc(N4CCOC[C@H]4C)c(F)c(=O)n3CC[C@H]2C(F)(F)F)ccn1 [Example 40]

["> 8.00", "> 8.00", "< 7.00", "> 8.00", "> 8.00", "> 8.00"]

Reference for the values: patent US11739100B2
